Tested on: HCI-015 (organoid from a triple-negative breast cancer xenograft)
Assay: CTG-3D luminescence at 96 h relative to day-0 seeding control (ratio to day 0); higher = more growth / less cytotoxicity; PDxO 3D drug screen, 96 h, CTG-3D normalised to day-0 seeding control.
Settings: 0.1 µM; days in culture: 172
RECORDED ENDPOINT: CTG-3D luminescence at 96 h

Please review the following examples before continuing.
Cc1nc(-c2cn3c(n2)-c2ccc(-c4cnn(C(C)(C)C(N)=O)c4)cc2OCC3)n(C(C)C)n1
1.48
NC1(C(=O)N[C@@H](CCO)c2ccc(Cl)cc2)CCN(c2nc[nH]c3nccc2-3)CC1
1.49

Let us examine a further case.
Data request: Specify CTG-3D luminescence at 96 h for CCN1CCN(Cc2ccc(Nc3ncc(F)c(-c4cc(F)c5nc(C)n(C(C)C)c5c4)n3)nc2)CC1 and stop.
Data returned: 1.21

###

System: HCI-016 (organoid from a triple-negative breast cancer xenograft)
Assay: CTG-3D luminescence at 96 h relative to day-0 seeding control (ratio to day 0); higher = more growth / less cytotoxicity; PDxO 3D drug screen, 96 h, CTG-3D normalised to day-0 seeding control.
Conditions: 1 µM; days in culture: 190
Listed below: CTG-3D luminescence at 96 h values for each entry.
Enter a number only.

Please review the following examples before continuing.
Cc1cc(Nc2ncnc3ccc(NC4=NC(C)(C)CO4)cc23)ccc1Oc1ccn2ncnc2c1
1.57
C[C@H](NC(=O)CCC(F)(F)F)C(=O)N[C@@H]1C(=O)N(CCO)c2ncccc2-c2ccccc21
0.838
CCN1CCN(Cc2ccc(Nc3ncc(F)c(-c4cc(F)c5nc(C)n(C(C)C)c5c4)n3)nc2)CC1
1.26
NC(=O)Nc1cc(-c2cccc(F)c2)sc1C(=O)N[C@H]1CCCNC1
0.0574
C[C@@H]1COCCN1c1cc(C2([S@](C)(=N)=O)CC2)nc(-c2cc[nH]c3nccc2-3)n1
1.11
NC1(C(=O)N[C@@H](CCO)c2ccc(Cl)cc2)CCN(c2nc[nH]c3nccc2-3)CC1
1.13
CN(Cc1cnc2nc(N)nc(N)c2n1)c1ccc(C(=O)N[C@@H](CCC(=O)O)C(=O)O)cc1 [methotrexate]
1.08

Let us examine a further case.
Data request: Specify CTG-3D luminescence at 96 h for C/C=C1\NC(=O)[C@H]2CSSCC/C=C/[C@H](CC(=O)N[C@H](C(C)C)C(=O)N2)OC(=O)[C@H](C(C)C)NC1=O and stop.
Data returned: 0.0109

###

Test system: MDA-MB-231
Assay: CTG-3D luminescence at 96 h relative to day-0 seeding control (ratio to day 0); higher = more growth / less cytotoxicity; PDxO 3D drug screen, 96 h, CTG-3D normalised to day-0 seeding control.
Conditions: 100 µM
Listed below: CTG-3D luminescence at 96 h values for each entry.
Enter a number only.

Please review the following examples before continuing.
O=C(c1ccc(F)c(F)c1Nc1ccc(I)cc1F)N1CC(O)([C@@H]2CCCCN2)C1
-0.00771
COc1cccc2c1C(=O)c1c(O)c3c(c(O)c1C2=O)C[C@@](O)(C(=O)CO)C[C@@H]3O[C@H]1C[C@H](N)[C@H](O)[C@H](C)O1
0.288
CC(C)(C(=O)NCC(F)(F)C(F)(F)F)C(=O)N[C@@H]1C(=O)Nc2ccccc2-c2ccccc21
4.04
CCc1c2c(nc3ccc(O)cc13)-c1cc3c(c(=O)n1C2)COC(=O)[C@]3(O)CC
0.568
Nc1ccn([C@@H]2O[C@H](CO)[C@@H](O)C2(F)F)c(=O)n1
0.848

Data request: Answer briefly: CTG-3D luminescence at 96 h recorded on MDA-MB-231 for COc1cc2c(Oc3ccc4[nH]c(C)cc4c3F)ncnc2cc1OCCCN1CCCC1
Data returned: 0.0107

Data request: Answer briefly: CTG-3D luminescence at 96 h recorded on MDA-MB-231 for CC[C@H](NC(=O)[C@H](C)NC)C(=O)N1C[C@@H](O)C[C@H]1Cc1c(-c2[nH]c3cc(F)ccc3c2C[C@@H]2C[C@H](O)CN2C(=O)[C@H](CC)NC(=O)[C@H](C)NC)[nH]c2cc(F)ccc12
Data returned: 2.41

###

Listed below: CTG-3D luminescence at 96 h values for each entry.
System: HCI-002 (organoid from a triple-negative breast cancer xenograft)
Assay: CTG-3D luminescence at 96 h relative to day-0 seeding control (ratio to day 0); higher = more growth / less cytotoxicity; PDxO 3D drug screen, 96 h, CTG-3D normalised to day-0 seeding control.
Conditions: 0.005 µM; days in culture: 91
Enter a number only.

Please review the following examples before continuing.
CS(=O)(=O)c1ccc(C(=O)Nc2ccc(Cl)c(-c3ccccn3)c2)c(Cl)c1 [vismodegib]
2.04
O=C(/C=C/c1cccnc1)NCCCCC1CCN(C(=O)c2ccccc2)CC1 [FK866]
1.55
CCN1CCN(Cc2ccc(Nc3ncc(F)c(-c4cc(F)c5nc(C)n(C(C)C)c5c4)n3)nc2)CC1 [abemaciclib]
2.89

Data request: Specify CTG-3D luminescence at 96 h for Nc1ccn([C@@H]2O[C@H](CO)[C@@H](O)C2(F)F)c(=O)n1 [gemcitabine] and stop.
Data returned: 3.08

###

Tested on: HCI-027 (organoid from a triple-negative breast cancer xenograft)
Assay: CTG-3D luminescence at 96 h relative to day-0 seeding control (ratio to day 0); higher = more growth / less cytotoxicity; PDxO 3D drug screen, 96 h, CTG-3D normalised to day-0 seeding control.
Conditions: 10 µM; days in culture: 176
RECORDED ENDPOINT: CTG-3D luminescence at 96 h
Enter a number only.

CC(=O)O[C@H]1C(=O)[C@@]2(C)[C@H]([C@H](OC(=O)c3ccccc3)[C@]3(O)C[C@H](OC(=O)[C@H](O)[C@@H](NC(=O)c4ccccc4)c4ccccc4)C(C)=C1C3(C)C)[C@]1(OC(C)=O)CO[C@@H]1C[C@@H]2O
0.392
O=C(O)C1(C(=O)O)CCC1.[NH2-].[NH2-].[Pt+2]
1.35

Data request: Specify CTG-3D luminescence at 96 h for CC(C)n1nc(-c2ccc3oc(N)nc3c2)c2c(N)ncnc21 and stop.
Data returned: 0.264

Data request: Specify CTG-3D luminescence at 96 h for O=C(/C=C/c1cccnc1)NCCCCC1CCN(C(=O)c2ccccc2)CC1 and stop.
Data returned: 0.0553

Data request: Specify CTG-3D luminescence at 96 h for Cc1cc(Nc2ncc(Cl)c(Nc3ccccc3S(=O)(=O)C(C)C)n2)c(OC(C)C)cc1C1CCNCC1 and stop.
Data returned: 0.00647

Data request: Specify CTG-3D luminescence at 96 h for CNC(=O)c1cccc(-c2ccc3c(N4CCOC[C@@H]4C)nc(N4CCOC[C@@H]4C)nc3n2)c1 and stop.
Data returned: 0.32

Data request: Specify CTG-3D luminescence at 96 h for CN(Cc1cnc2nc(N)nc(N)c2n1)c1ccc(C(=O)N[C@@H](CCC(=O)O)C(=O)O)cc1 [methotrexate] and stop.
Data returned: 1.55

###

System: HCI-002
Experiment: CTG-3D luminescence at 96 h relative to day-0 seeding control (ratio to day 0); higher = more growth / less cytotoxicity; PDxO 3D drug screen (set 2), 96 h, CTG-3D normalised to day-0 seeding control.
Details: 625 fM; days in culture: 127
Tag: YES if measured CTG-3D luminescence at 96 h is not below 3, NO if it is.

Please review the entries below; each comes with its answer.
COc1cccc2c1C(=O)c1c(O)c3c(c(O)c1C2=O)C[C@@](O)(C(=O)CO)C[C@@H]3O[C@H]1C[C@H](N)[C@@H](O)[C@H](C)O1 [epirubicin]
YES
CS(=O)(=O)CCNCc1ccc(-c2ccc3ncnc(Nc4ccc(OCc5cccc(F)c5)c(Cl)c4)c3c2)o1
NO
Cc1c(CN2CCN(C(=O)[C@H](C)O)CC2)sc2c(N3CCOCC3)nc(-c3cnc(N)nc3)nc12
NO
C[C@@H](Nc1cc(F)cc(F)c1)c1cc(C(=O)N(C)C)cc2c(=O)cc(N3CCOCC3)oc12
NO

Next:
Data request: Test whether the molecule CCOc1ccn(-c2ccc(F)cc2)c(=O)c1C(=O)Nc1ccc(Oc2ccnc(N)c2Cl)c(F)c1 records CTG-3D luminescence at 96 h of 3 or higher.
Data returned: NO

###

Tested on: HCI-012 (organoid from a breast cancer xenograft)
Assay: CTG-3D luminescence at 96 h relative to day-0 seeding control (ratio to day 0); higher = more growth / less cytotoxicity; PDxO 3D drug screen, 96 h, CTG-3D normalised to day-0 seeding control.
Conditions: 0.1 µM; days in culture: 143
Tag: class 1 if measured CTG-3D luminescence at 96 h is not below 2, class 0 if it is.

Please review the entries below; each comes with its answer.
NC(=O)Nc1cc(-c2cccc(F)c2)sc1C(=O)N[C@H]1CCCNC1
class 1
CS(=O)(=O)c1ccc(C(=O)Nc2ccc(Cl)c(-c3ccccn3)c2)c(Cl)c1
class 1
CC(C)n1nc(-c2ccc3oc(N)nc3c2)c2c(N)ncnc21
class 0

Next:
Data request: Test whether the molecule CCN(c1cc(C#CCN2CCOCC2)cc(C(=O)NCc2c(C)cc(C)[nH]c2=O)c1C)[C@H]1CC[C@H](N(C)CCOC)CC1 records CTG-3D luminescence at 96 h of 2 or higher.
Data returned: class 1
